Listing: EC50 of selected compounds
# Assay system: human CB1R (hCB1R) (Homo sapiens, UniProt P21554)
# Construct: host or cells: CHO-K1 (PathHunter βarrestin2 line)
# Sequence (P21554 whole entry): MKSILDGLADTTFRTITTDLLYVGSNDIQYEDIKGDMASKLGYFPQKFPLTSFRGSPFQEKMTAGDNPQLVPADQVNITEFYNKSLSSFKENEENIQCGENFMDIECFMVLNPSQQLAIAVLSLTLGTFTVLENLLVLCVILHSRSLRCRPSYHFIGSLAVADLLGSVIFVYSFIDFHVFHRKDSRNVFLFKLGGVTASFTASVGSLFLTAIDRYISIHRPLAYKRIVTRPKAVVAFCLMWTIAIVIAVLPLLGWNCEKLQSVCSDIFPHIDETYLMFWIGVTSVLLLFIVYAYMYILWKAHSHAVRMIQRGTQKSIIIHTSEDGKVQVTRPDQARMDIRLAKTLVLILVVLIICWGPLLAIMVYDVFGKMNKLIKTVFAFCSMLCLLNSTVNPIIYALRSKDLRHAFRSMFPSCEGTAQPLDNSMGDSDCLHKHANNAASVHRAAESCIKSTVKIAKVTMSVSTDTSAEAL
# Procedure details: HitHunter cAMP inhibition assay in hCB1R CHO-K1 cells (10 µM forskolin)
# Type: cell-based
# Measurement setup: compound alone, hCB1R CHO-K1, 90 min, value (95% CI), Figure 3A; read-out: EC50 (nM) 95% C.I., cAMP inhibition as agonist
Report as: number unit

In the examples that follow, each entry is paired with its recorded EC50.
O=[N+]([O-])C[C@@H](c1ccccc1F)c1c(-c2cccc(F)c2)[nH]c2c(F)cccc12 : 1.7 nM
O=[N+]([O-])C[C@@H](c1ccccc1F)c1c(-c2cccc(F)c2)[nH]c2cc(F)ccc12 : 1.1 nM
O=[N+]([O-])CC(c1ccccc1F)c1c(-c2cccc(F)c2)[nH]c2c(F)cccc12 (stereo not shown) : 1.3 nM

With human CB1R (hCB1R) (Homo sapiens, UniProt P21554) as the test system, O=[N+]([O-])CC(c1ccccc1F)c1c(-c2cccc(F)c2)[nH]c2cc(F)ccc12 (stereo not shown) showed EC50 of 2.8 nM

###

# Assay system: hCB1R (Homo sapiens)
# Construct: expressed in transfected cells; host or cells: CHO-K1 cell membranes
# Procedure details: [3H]CP55,940 radioligand binding to hCB1R CHO-K1 cell membranes
Measured quantity: pEC50
Interpret pEC50 as the negative base-10 log of the concentration measured in mol/L.

Answered examples (3):
O=[N+]([O-])CC(c1ccccc1F)c1c(-c2cccc(F)c2)[nH]c2cc(F)ccc12 (stereo not shown) : 6.96
O=[N+]([O-])CC(c1ccccc1F)c1c(-c2cccc(F)c2)[nH]c2c(F)cccc12 (stereo not shown) : 6.85
O=[N+]([O-])C[C@@H](c1ccccc1F)c1c(-c2cccc(F)c2)[nH]c2c(F)cccc12 : 7.55

# input for lookup
The molecule identified as `O=[N+]([O-])C[C@@H](c1ccccc1F)c1c(-c2cccc(F)c2)[nH]c2cc(F)ccc12` registered its pEC50 at 6.85

###

# Assay system: hCB1R (Homo sapiens)
# Construct: expressed in transfected cells; host or cells: CHO-K1 cell membranes
# Procedure details: [3H]CP55,940 radioligand binding to hCB1R CHO-K1 cell membranes
# Measurement setup: 1 nM [3H]CP55,940, Figure 4A
# Procedure: The assay began with the addition of transfected hCB1R CHO-K1 cell membranes (25 µg protein per well). […] Radioactivity was quantified by liquid scintillation spectrometry. Data related to EC50 and E max in Figures 3, 4 were obtained with nonlinear regression models (3-parameter model, GraphPad Prism 9.0, San Diego, CA). […] Data related to Figure 5 was analyzed in GraphPad Prism 9.0 was used to analyze in vivo data and p < 0.05 was considered to be statistically significant. […]
Measured quantity: Emax ± S.E.M., [3H]CP55,940 bound (% radioligand bound)
Give your result in % radioligand bound as a bare value.

// below: answered compounds
O=[N+]([O-])C[C@@H](c1ccccc1F)c1c(-c2cccc(F)c2)[nH]c2c(F)cccc12 : 230
O=[N+]([O-])CC(c1ccccc1F)c1c(-c2cccc(F)c2)[nH]c2cc(F)ccc12 (stereo not shown) : 140
O=[N+]([O-])C[C@@H](c1ccccc1F)c1c(-c2cccc(F)c2)[nH]c2cc(F)ccc12 : 190

Short answer for O=[N+]([O-])CC(c1ccccc1F)c1c(-c2cccc(F)c2)[nH]c2c(F)cccc12 (stereo not shown) : Emax ± S.E.M., [3H]CP55,940 bound was 140
